# Assay method text: Viscosity responsiveness: fluorescence emission spectra of probes in glycerol and methanol
# Type: physicochemical
# Run conditions: excited at maximum excitation wavelength of each probe
# Source text: […]
Assay readout: Emission wavelength (nm)

>  <Compound>
CN(CCO)c1ccc(/C=C(\C#N)C(=O)NCc2ccc(COc3nc(N)nc4[nH]cnc34)cc2)cc1 [Reference Probe 102, reference compound]

>  <Unit descriptor>
nm

>  <Result>
480

$$$$
>  <Compound>
CN(CCOC(=O)NCc1ccc(COc2cc(Cl)nc(N)n2)cc1)c1ccc(/C=C(\C#N)C(=O)OC(C)(C)C)cc1 [probe 4]

>  <Unit descriptor>
nm

>  <Result>
480

$$$$
>  <Compound>
CN(CCOC(=O)NCc1ccc(COc2nc(N)nc3[nH]cnc23)cc1)c1ccc(-c2ccc(/C=C(\C#N)C(=O)O)s2)cc1 [probe 117]

>  <Unit descriptor>
nm

>  <Result>
620

$$$$

---

# Assayed target: SNAP protein tags (Homo sapiens, UniProt P16455, A127T/A154D/C150Q/C62A/E30R/G131K/G132T/G153L/K125A/K32I/L33F/M134L/N157G/Q115S/Q116H/R128A/R135S/S151G/S152D/S159E)
# Sequence (P16455 1-182 E30R/K32I/L33F/C62A/Q115S/Q116H/K125A/A127T/R128A/G131K/G132T/M134L/R135S/C150Q/S151G/S152D/G153L/A154D/N157G/S159E): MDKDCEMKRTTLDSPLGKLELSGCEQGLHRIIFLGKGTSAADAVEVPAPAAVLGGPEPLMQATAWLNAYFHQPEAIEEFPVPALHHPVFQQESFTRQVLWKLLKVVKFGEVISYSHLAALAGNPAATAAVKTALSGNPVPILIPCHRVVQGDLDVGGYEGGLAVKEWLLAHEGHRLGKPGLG
# Assay method text: Fluorescence activation of probe after incubation with corresponding protein tag (SNAP)
# Type: biochemical
# Run conditions: probe 5 μM, protein tag 10 μM, 37° C., 1 hr
# Experimental: Probes were mixed with corresponding protein tags to obtain mixed samples, in which the final probe concentration was 5 μM, and the final protein tag concentration was 10 μM. The mixed samples were incubated 37° C. for 1 hr, fluorescence spectrophotometer was used to detect the change in fluorescence intensity, and the results are shown in Table 1. […]
Assay readout: Fluorescence activation multiple

>  <Compound>
CN(CCOC(=O)NCc1ccc(COc2nc(N)nc3[nH]cnc23)cc1)c1ccc2nc(/C=C(\C#N)c3nc4ccccc4o3)oc2c1 [probe 46]

>  <Fluorescence activation multiple>
563

$$$$
>  <Compound>
CN(CCOC(=O)NCc1ccc(COc2nc(N)nc3[nH]cnc23)cc1)c1ccc2cc(/C=C(\C#N)c3nc4ccccc4s3)sc2c1 [probe 32]

>  <Fluorescence activation multiple>
638

$$$$
>  <Compound>
COCCNC(=O)/C(C#N)=C/c1ccc(-c2ccc(N(C)CCOC(=O)NCc3ccc(COc4nc(N)nc5[nH]cnc45)cc3)cc2)s1 [probe 67]

>  <Fluorescence activation multiple>
576

$$$$

[1] CN(CCO)c1cc2c(s1)-c1sc(/C=C(/C#N)C(=O)NCc3ccc(COc4nc(N)nc5[nH]cnc45)cc3)cc1C2(C)C [Reference Probe 99, reference compound]
[2] CN(CCOC(=O)NCc1ccc(COc2nccc(N)n2)cc1)c1ccc2c(c1)sc1cc(/C=C(/C#N)c3nc4ccccc4o3)sc12 [probe 65]
[3] CN(CCO)c1cc2sc(/C=C(\C#N)C(=O)NCc3ccc(COc4nc(N)nc5[nH]cnc45)cc3)cc2s1 [Reference Probe 108, reference compound]
[4] CN(CCOC(=O)NCc1ccc(COc2nc(N)nc3[nH]cnc23)cc1)c1ccc2cc(/C=C(\C#N)C(=O)OC(C)(C)C)sc2c1 [probe 40]
Reorder: Fluorescence activation multiple, max to min. Your reply should list the labels following the order given in the request.
2, 4, 1, 3

[I] CN(CCOC(=O)NCc1ccc(COc2nc(N)nc3[nH]cnc23)cc1)c1ccc2nc(/C=C(\C#N)C(=O)OC(C)(C)C)oc2c1 [probe 43]
[II] CN(CCO)c1ccc2cc(/C=C(\C#N)C(=O)NCc3ccc(COc4nc(N)nc5[nH]cnc45)cc3)sc2c1 [Reference Probe 112, reference compound]
# query: argmin of Fluorescence activation multiple over I and II Use the label to indicate which entry you chose.
II
(II: 41, I: 982)

---

# Assay method text: Viscosity responsiveness: fluorescence emission spectra of probes in glycerol and methanol
# Type: physicochemical
# Run conditions: excited at maximum excitation wavelength of each probe
Assay readout: Emission wavelength (nm)

>  <Compound>
CN(CCOC(=O)NCc1ccc(COc2nccc(N)n2)cc1)c1ccc(-c2ccc(/C=C(\C#N)c3nc4ccccc4o3)s2)s1 [probe 81]

>  <Unit descriptor>
nm

>  <Emission wavelength>
672

$$$$
>  <Compound>
CN(CCOC(=O)NCc1ccc(COc2nc(N)nc3[nH]cnc23)cc1)c1cc2cc3sc(/C=C(\C#N)C(=O)OC(C)(C)C)cc3cc2s1 [probe 70]

>  <Unit descriptor>
nm

>  <Emission wavelength>
640

$$$$
>  <Compound>
CN(C)c1ccc2nc(/C=C(\C#N)C(=O)NCc3ccc(COc4nc(N)nc5[nH]cnc45)cc3)sc2c1 [Reference Probe 113, reference compound]

>  <Unit descriptor>
nm

>  <Emission wavelength>
625

$$$$
>  <Compound>
CN(CCO)c1cc2c(s1)-c1sc(/C=C(/C#N)C(=O)NCc3ccc(COc4nc(N)nc5[nH]cnc45)cc3)cc1C2(C)C [Reference Probe 99, reference compound]

>  <Unit descriptor>
nm

>  <Emission wavelength>
649

$$$$
>  <Compound>
CN(CCOC(=O)NCc1ccc(COc2cc(Cl)nc(N)n2)cc1)c1ccc2nc(/C=C(\C#N)C(=O)OC(C)(C)C)sc2c1 [probe 52]

>  <Unit descriptor>
nm

>  <Emission wavelength>
625

$$$$
>  <Compound>
CN(CCOC(=O)NCc1ccc(COc2nccc(N)n2)cc1)c1ccc2nc(/C=C(\C#N)C(=O)OC(C)(C)C)sc2c1 [probe 53]

>  <Unit descriptor>
nm

>  <Emission wavelength>
625

$$$$

---

# Assay method text: Viscosity responsiveness: fluorescence emission spectra of probes in glycerol and methanol
# Assay type: physicochemical
# Run conditions: excited at maximum excitation wavelength of each probe
Assay readout: Emission wavelength (nm)

>  <Molecule>
N#C/C(=C\c1ccc2c(c1)SCCN2CCO)C(=O)NCc1ccc(COc2nc(N)nc3[nH]cnc23)cc1 [Reference Probe 104, reference compound]

>  <Result>
515

$$$$
>  <Molecule>
CC1=CC(C)(C)N(CCOC(=O)NCc2ccc(COc3nccc(N)n3)cc2)c2ccc(/C=C(\C#N)C(=O)OC(C)(C)C)cc21 [probe 90]

>  <Result>
575

$$$$
>  <Molecule>
COCCNC(=O)/C(C#N)=C/c1ccc(-c2ccc(N(C)CCOC(=O)NCc3ccc(COc4nc(N)nc5[nH]cnc45)cc3)cc2)s1 [probe 67]

>  <Result>
620

$$$$
>  <Molecule>
CC1=CC(C)(C)N(CCOC(=O)NCc2ccc(COc3nc(N)nc4[nH]cnc34)cc2)c2ccc(/C=C(\C#N)C(=O)OC(C)(C)C)cc21 [probe 87]

>  <Result>
575

$$$$
>  <Molecule>
CN(CCOC(=O)NCc1ccc(COc2nc(N)nc3[nH]cnc23)cc1)c1ccc2cc(/C=C(\C#N)C(=O)OC(C)(C)C)sc2c1 [probe 30]

>  <Result>
570

$$$$
>  <Molecule>
N#C/C(=C\c1ccc2c(c1)SCCN2CCOC(=O)NCc1ccc(COc2nc(N)nc3[nH]cnc23)cc1)C(=O)O [probe 103]

>  <Result>
515

$$$$

---

# Assay method text: Viscosity responsiveness: fluorescence emission spectra of probes in glycerol and methanol
# Type: physicochemical
# Run conditions: probe 1×10^−5 M
Assay readout: Fluorescence ratio in glycerol to methanol

>  <Compound>
CC(C)(C)OC(=O)/C(C#N)=C/c1ccc(N(CCOC(=O)NCCCS(=O)(=O)O)CCOC(=O)NCc2ccc(COc3nc(N)nc4[nH]cnc34)cc2)cc1

>  <Result>
422

$$$$
>  <Compound>
CN(CCOC(=O)NCc1ccc(COc2nc(N)nc3[nH]cnc23)cc1)c1ccc2nc(/C=C(\C#N)C(=O)O)oc2c1

>  <Result>
210

$$$$
>  <Compound>
CN(CCOC(=O)NCc1ccc(COc2nc(N)nc3[nH]cnc23)cc1)c1ccc2nc(/C=C(\C#N)c3nc4ccccc4s3)sc2c1

>  <Result>
211

$$$$
>  <Compound>
CN(CCO)c1ccc(/C=C(\C#N)C(=O)NCc2ccc(COc3nc(N)nc4[nH]cnc34)cc2)cc1 [Reference Probe 102, reference compound]

>  <Result>
212

$$$$

[I] CN(CCOC(=O)NCc1ccc(COc2nc(N)nc3[nH]cnc23)cc1)c1ccc2nc(/C=C(\C#N)C(=O)O)sc2c1
[II] CN(CCOC(=O)NCc1ccc(COc2nc(N)nc3[nH]cnc23)cc1)c1ccc(C#C/C=C(\C#N)c2nc3ccccc3o2)cc1
Smaller Fluorescence ratio in glycerol to methanol value? Options are I and II Kindly state the label of the option you pick.
I
